The measured values listed here are drawn from PubChem BioAssay (NCI).

test system: UACC-257 melanoma; assay: NCI tumour cell line growth inhibition, 48 h; in the data active = GI50 below about 0.43 µM; inactive = the rest
Outcomes: True for active, False for inactive

>>> classification("COc1cc(/C=C/c2cc(O)c(C(C)=O)c(O)c2)cc2c1O[C@]1(C)CC[C@@H](O)C(C)(C)[C@H]1C2")
"False"
>>> classification("CN(C(=O)c1ccc(C(F)(F)F)cc1)c1ccc(Oc2ccc3c(c2)cc(C(=O)N2CCN(Cc4ccc(OC(F)F)cc4)CC2)n3C)nc1")
"True"
>>> classification("COc1ccc(/C=C(/C#N)n2nnc3cccc(F)c32)cc1")
"False"

###

test system: SK-MEL-2 melanoma; assay: NCI tumour cell line growth inhibition, 48 h
Let's look at some compounds and their measured TGI.
measurement_name: TGI

>>> data_value("CN(C)c1ccc(/C=C(\\NC(=O)c2ccccc2)c2nc3ncncc3[nH]2)cc1")
"> 100 µM"
>>> data_value("CSc1nsc(-c2ccccc2)[s+]1")
"> 100 µM"
>>> data_value("CCCSCC(P(=O)(O)O)P(=O)(O)O")
"> 100 µM"
